assay: Single-dose two-period crossover bioequivalence study, fed (high-fat breakfast): plasma pharmacokinetics of lisinopril and amlodipine (LC-MS/MS, NCA); conditions: human, in vivo, po, Plasma concentration of lisinopril, individual subjects, nominal time 8 h, reference (R) tablets
PARAMETER_MEASURED: concentration at 8 h
Quick note: unit goes after the number.

Kindly indicate its recorded concentration at 8 h. Item: NCCCC[C@H](N[C@@H](CCc1ccccc1)C(=O)O)C(=O)N1CCC[C@H]1C(=O)O [lisinopril]
22.4 ng/mL

====

assay: Single-dose two-period crossover bioequivalence study, fed (high-fat breakfast): plasma pharmacokinetics of lisinopril and amlodipine (LC-MS/MS, NCA); conditions: human, plasma, po, Plasma concentration of lisinopril, Min, minimum among subjects, nominal time 0 h, reference (R) tablets
PARAMETER_MEASURED: concentration at 0 h

Please give measured concentration at 0 h of the following entry: "NCCCC[C@H](N[C@@H](CCc1ccccc1)C(=O)O)C(=O)N1CCC[C@H]1C(=O)O"
0 µg/mL
